Assignment: determine reported drug sensitivity score for the given molecules.
tested on: DLD1 NRF2-GOF; assay: drug sensitivity score (DSS) cytotoxicity (DSS score); higher = more toxic; extreme values may be limits of the assay; details: 72 h; CellTox Green cytotoxicity
The answer should be written as a number, with no unit following it.

Qu. State its drug sensitivity score for this molecule: `COc1cc2ncnc(Nc3ccc(F)c(Cl)c3)c2cc1NC(=O)/C=C/CN1CCCCC1`
Ans. 0

Qu. State its drug sensitivity score for this molecule: `CC[C@@H](C(=O)[C@@H](C)[C@@H](O)[C@H](C)[C@@H]1O[C@@H]([C@@H](CC)C(=O)O)CC[C@@H]1C)[C@H]1O[C@]2(C=C[C@@H](O)[C@]3(CC[C@@](C)([C@H]4CC[C@](O)(CC)[C@H](C)O4)O3)O2)[C@H](C)C[C@@H]1C`
Ans. 0

Qu. State its drug sensitivity score for this molecule: `CCN(CCO)CCCOc1ccc2c(Nc3cc(CC(=O)Nc4cccc(F)c4)[nH]n3)ncnc2c1`
Ans. 7.7

Qu. State its drug sensitivity score for this molecule: `C=C1C[C@@H]2CC[C@@]34C[C@H]5O[C@H]6[C@@H](O3)[C@H]3O[C@H](CC[C@@H]3O[C@H]6[C@H]5O4)CC(=O)C[C@@H]3[C@@H](OC)[C@@H](C[C@H](O)CN)O[C@H]3C[C@H]3O[C@@H](CC[C@@H]1O2)C[C@@H](C)C3=C`
Ans. 4.4

Qu. State its drug sensitivity score for this molecule: COc1cccc2c1C(=O)c1c(O)c3c(c(O)c1C2=O)C[C@@](O)(C(=O)CO)C[C@@H]3O[C@H]1C[C@H](N)[C@@H](O)[C@H](C)O1 [Epirubicin]
Ans. 0

Qu. State its drug sensitivity score for this molecule: `Cc1ccc(NC(=O)c2ccc(CN3CC[C@H](N(C)C)C3)c(C(F)(F)F)c2)cc1Nc1nccc(-c2cncnc2)n1`
Ans. 0

Qu. State its drug sensitivity score for this molecule: `CO[C@@H]1[C@H](N(C)C(=O)c2ccccc2)C[C@H]2O[C@]1(C)n1c3ccccc3c3c4c(c5c6ccccc6n2c5c31)C(=O)NC4`
Ans. 12.9

Qu. State its drug sensitivity score for this molecule: `CN(C)C(=O)c1cc2cnc(Nc3ccc(N4CCNCC4)cn3)nc2n1C1CCCC1`
Ans. 0

Qu. State its drug sensitivity score for this molecule: CN(Cc1cnc2nc(N)nc(N)c2n1)c1ccc(C(=O)N[C@@H](CCC(=O)O)C(=O)O)cc1 [Methotrexate]
Ans. 0

Qu. State its drug sensitivity score for this molecule: `Oc1nc(-c2ccc(C(F)(F)F)cc2)nc2c1CSCC2`
Ans. 0

Qu. State its drug sensitivity score for this molecule: `CCCCCCCCCCCCCCCCCCOP(=O)([O-])OC1CC[N+](C)(C)CC1`
Ans. 0.6

Qu. State its drug sensitivity score for this molecule: `Nc1ccn([C@@H]2O[C@H](CO)[C@@H](O)C2(F)F)c(=O)n1`
Ans. 0

Qu. State its drug sensitivity score for this molecule: `CN1CCC(CNc2ccc3ncc(-c4cccc(OC(F)(F)F)c4)n3n2)CC1`
Ans. 3.1
